# credit: paper PMC10397247

Target: T1, 4H535-AA
T1 chain: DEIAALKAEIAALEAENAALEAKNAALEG
Experiment: two-hybrid library CCmax;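 note: natural log of median RNA to DNA barcode read ratio; higher means stronger binding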
Conditions: mean of both orientations
Property Label: interaction score

Use these answered entries as a reference point.
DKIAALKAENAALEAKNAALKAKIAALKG [4H2750-AA]: -1.08
DKIAALKAKNAALKAEIAALKAENAALKG [4H3020-AA]: -1.47
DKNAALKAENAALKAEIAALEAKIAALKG [4H3782-AA]: -1.44
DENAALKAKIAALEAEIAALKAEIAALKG [4H1802-AA]: -1.73
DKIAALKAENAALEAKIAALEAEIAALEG [4H2721-AA]: -1.55
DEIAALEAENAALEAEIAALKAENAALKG [4H140-AA]: -1.56
DKNAALKAEIAALKAEIAALEAENAALEG [4H3651-AA]: -1.16

P: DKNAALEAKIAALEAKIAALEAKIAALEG [4H3365-AA]
Q: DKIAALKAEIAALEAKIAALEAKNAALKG [4H2600-AA]
*Q* Choose between P and Q : whose measured interaction score value is numerically larger? Kindly state the label of the option you pick.
*A* Q
(Q: -0.657, P: -1.33)
